Target: T1, cynomolgus (Macaca fascicularis) ST2L extracellular domain with C-terminal His6 tag (Macaca fascicularis (cynomolgus), UniProt Q01638 19-321 (human entry))
T1 construct: also called cyno ST2L-ECD; cynoST2L-ECD
T1 chain: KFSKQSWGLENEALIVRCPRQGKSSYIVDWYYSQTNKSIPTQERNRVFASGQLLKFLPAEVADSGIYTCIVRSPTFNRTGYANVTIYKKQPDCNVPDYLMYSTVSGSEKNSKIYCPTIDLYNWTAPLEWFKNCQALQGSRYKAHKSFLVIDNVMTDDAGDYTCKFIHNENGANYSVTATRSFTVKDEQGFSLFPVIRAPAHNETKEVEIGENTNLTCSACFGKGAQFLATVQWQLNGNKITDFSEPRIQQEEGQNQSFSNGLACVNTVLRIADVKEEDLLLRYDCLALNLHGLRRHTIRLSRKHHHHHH
Assay: ProteOn SPR, mAb captured, ST2L-ECD in solution
Assay Endpoint: Kd (pM)
Only the number, expressed in pM, is required.

stdin: Read the entry STLM195 (antibody, V domains shown, C2494 HFA mAb: VH STLH195 + VL STLL272 (O18)) VH: QVQLVQSGAEVKKPGASVKVSCKVSAFNIKDDYMHWVRQAPGKGLEWMGRIDPAIGNTEYAPKFQDRVTMTEDTSTDTAYMELSSLRSEDTAVYYCATGDFYAMDYWGQGTLVTVSS VL: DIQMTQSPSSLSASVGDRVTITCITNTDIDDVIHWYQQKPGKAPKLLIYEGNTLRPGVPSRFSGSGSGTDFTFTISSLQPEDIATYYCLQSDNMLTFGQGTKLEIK and write its reported Kd.
stdout: 719

stdin: Annotate the binder STLM202 (antibody, V domains shown, C2494 HFA mAb: VH STLH194 + VL STLL275 (L5)) VH: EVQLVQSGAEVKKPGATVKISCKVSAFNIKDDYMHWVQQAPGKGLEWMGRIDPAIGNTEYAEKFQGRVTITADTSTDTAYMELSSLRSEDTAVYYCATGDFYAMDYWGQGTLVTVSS VL: DIQMTQSPSSVSASVGDRVTITCITNTDIDDVIHWYQQKPGKAPKLLIYEGNTLRPGVPSRFSGSGSGTDFTLTISSLQPEDFATYYCLQSDNMLTFGQGTKLEIK with its measured Kd.
stdout: 134

stdin: Name the recorded Kd of the item STLM197 (antibody, V domains shown, C2494 HFA mAb: VH STLH194 (IGHV1-f*01) + VL STLL280 (O12b)) VH: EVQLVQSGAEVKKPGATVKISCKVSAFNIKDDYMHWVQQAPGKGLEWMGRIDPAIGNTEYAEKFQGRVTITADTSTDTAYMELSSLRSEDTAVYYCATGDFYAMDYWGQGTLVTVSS VL: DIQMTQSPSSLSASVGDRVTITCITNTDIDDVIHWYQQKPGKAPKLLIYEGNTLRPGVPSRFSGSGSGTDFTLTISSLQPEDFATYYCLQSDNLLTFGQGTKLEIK in your answer.
stdout: 232
